From: patent US20150015931A1

# Assay overview: Solubility testing: saturation concentration of dye in non-polar solvent
# Condition set: decane; Table 1 Blue/Black Dyes
Exercise: state measured Saturation wt % in decane for each of the compounds provided.
Give bare numbers, in wt %.

Compound	Unit descriptor	Saturation wt % in decane
CCCCC(CC)COc1cc(/N=N/c2ccc([N+](=O)[O-])cc2[N+](=O)[O-])c(OCC(CC)CCCC)cc1/N=N/c1ccc(N(CCC(C)CC(C)(C)C)CCC(C)CC(C)(C)C)cc1C (stereo not shown)	wt %	3.53

Would you be so kind as to report Saturation wt % in decane for each listed record?
1. CCCCCCCCCCCCN(CCC(C)CC(C)(C)C)c1ccc(/N=N/c2cc(OCC(CC)CCCC)c(/N=N/c3ccc([N+](=O)[O-])cc3[N+](=O)[O-])cc2OCC(CC)CCCC)c(C)c1 (stereo not shown)
2. CCCCCCCCCCCCN(CCCCCCCCCCCC)c1ccc(/N=N/c2cc(OCC(CC)CCCC)c(/N=N/c3ccc([N+](=O)[O-])cc3[N+](=O)[O-])cc2OCC(CC)CCCC)c(C)c1 (stereo not shown)
3. CCCCCCCCN(CCCCCCCC)c1ccc(/N=N/c2cc(OCC(CC)CCCC)c(/N=N/c3ccc([N+](=O)[O-])cc3[N+](=O)[O-])cc2OCC(CC)CCCC)c(C)c1 (stereo not shown)
4. CCCCC(CC)COc1cc(/N=N/c2ccc([N+](=O)[O-])cc2[N+](=O)[O-])c(OCC(CC)CCCC)cc1/N=N/c1ccc(N(CC(CC)CCCC)CC(CC)CCCC)cc1C (stereo not shown)
5. CCCCCCCCCCCCCCN(CCCCCCCCCCCCCC)c1ccc(/N=N/c2cc(OCC(CC)CCCC)c(/N=N/c3ccc([N+](=O)[O-])cc3[N+](=O)[O-])cc2OCC(CC)CCCC)c(C)c1 (stereo not shown)
6. CCCCCCCCCCN(CCCCCCCCCC)c1ccc(/N=N/c2cc(OCC(CC)CCCC)c(/N=N/c3ccc([N+](=O)[O-])cc3[N+](=O)[O-])cc2OCC(CC)CCCC)c(C)c1 (stereo not shown)

16.67
5.17
100
17.19
15.2
2.39

###

Exercise: state measured Dye saturation concentration % in (Decane/dye 2 as solvent) for each of the molecules provided.
# Assay overview: Solubility testing: saturation concentration of dye in non-polar solvent
# Condition set: Decane/dye 2 as solvent
Give bare numbers, in %.

Previously resolved entries follow.
>>> df
                                   molecule  experimental_value
0  Cc1ccc(C)c(N=Nc2cc(C)c(N=Nc3c(O)ccc4ccccc34)cc2C)c1 [Oil Red O, reference compound]                1.91
1  CCCCCNc1ccc(NCCCCC)c2c1C(=O)c1ccccc1C2=O [Oil Blue N, reference compound]                1.34
2  CCCCNc1ccc(NCCCC)c2c1C(=O)c1ccccc1C2=O [Solvent Blue 35, reference compound]                0.69

Would you be so kind as to report Dye saturation concentration % in (Decane/dye 2 as solvent) for each listed record?
1. CCCCCCCCN(CCCCCCCC)c1ccc(/N=N/c2snc(C)c2C#N)c(NC(C)=O)c1
2. CCCCCCCCCCCCCCCCCCN(CCCCCCCCCCCCCCCCCC)c1cc(NC(C)=O)c(/N=N/c2c(C#N)cc([N+](=O)[O-])cc2C#N)cc1OC

0.62
0.18

###

Exercise: state measured Saturation concentration (%) for each of the molecules provided.
# Assay overview: Solubility testing: saturation concentration of dye in non-polar solvent
# Condition set: in decane; Table 5
Answers are plain numbers, in %.

Previously resolved entries follow.
In [3]: df
Out[3]:
                                   molecule  experimental_value
0  CCCCCCCCN(CCCCCCCC)c1ccc(/N=N/c2ccc([N+](=O)[O-])cc2)c(C)c1 [Dye 15]                8.58
1  Cc1ccc(C)c(N=Nc2cc(C)c(N=Nc3c(O)ccc4ccccc34)cc2C)c1 [Oil Red O, reference compound]               1.615
2  CCCCNc1ccc(NCCCC)c2c1C(=O)c1ccccc1C2=O [Solvent Blue 35, reference compound]               0.385
3  Cc1ccccc1/N=N/c1ccc(/N=N/c2c(O)ccc3ccccc23)c(C)c1 [Solvent Red 24, reference compound]                 0.6

I'd like to know its Saturation concentration (%). The molecule in question is CCCCCNc1ccc(NCCCCC)c2c1C(=O)c1ccccc1C2=O [Oil Blue N, reference compound]
0.657

###

Exercise: state measured Saturation wt % in decane for each of the molecules provided.
# Assay overview: Solubility testing: saturation concentration of dye in non-polar solvent
# Condition set: decane; Table 4 Yellow Dyes
One number for each entry, in wt %.

Would you be so kind as to report Saturation wt % in decane for each listed record?
1. CCCCCCCCN(CCCCCCCC)c1ccc(/N=N/c2ccc([N+](=O)[O-])cc2)c(C)c1
2. CCCCCCCCCCCCCCc1ccc(/N=N/c2c(C)cc(=O)n(CC(CC)CCCC)c2O)cc1 (stereo not shown)
3. CCCCCCCCCCCCCCc1ccc(/N=N/c2c(C)c(C#N)c(=O)n(CC(CC)CCCC)c2O)cc1 (stereo not shown)
4. CCCCc1ccc(/N=N/c2ccc(N(CCCC)CCCC)cc2)cc1

1: 10.50; 2: 3.72; 3: 1.03; 4: 9.95
